species: Rattus norvegicus; test: DrugMatrix - Regimen: Daily Repeat; assay type: toxicity, organism-based, Sprague-Dawley; parameters: regimen Daily Repeat, gender Male, age 6-8 weeks; conditions: in vivo, po, 0 mg/kg, 72 h, tissue Plasma, route oral GAVAGE, dose level Control, time 3 day, vehicle 100 % SALINE
measurementName: CHLORIDE (MEQ/L)

• CC(CN1c2ccccc2Sc2ccccc21)N(C)C (stereo not given) = 99.67
• Cc1ccnc2c1NC(=O)c1cccnc1N2C1CC1 = 98.5
• CCN(CC)N=O = 96.83
• CCO = 99.67
• O=[As][O-].[Na+] [SODIUM ARSENITE] = 99.67

Origin of the recorded values: ChEMBL document CHEMBL3885881
